# MEASUREMENT_DESCRIPTION: chemical genetic growth profiling, strain panel (AID 1159580);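 also: tested at 20 µM; growth read once vehicle control cultures reached saturation at 30 °C; lower values mean less growth of the strain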
# TEST_CONDITIONS: S. cerevisiae deletion strains, growth OD, locus YJL187C, strain SWE1
Among all 5,500 compounds or so, about 2,000 (36%) were called active. Not shown: some 18% with an inconclusive outcome. Rule as the data show it: active = normalized growth mostly below about 0.91 (no sharp cut-off); inconclusive = no clear call, values can overlap the other calls; inactive = mostly above about 0.92. The list shows a part of the results.
Labels: active, inactive

# MOLECULE, CLASSIFICATION
data = [
    ("CCC(=O)OC1[C@@H]2CC3=C4CC(=O)O[C@@H](c5ccoc5)[C@]4(C)CCC3[C@@](C)(C2=O)[C@@H](CC(=O)OC)C1(C)C (stereo not given in full)", "inactive"),
    ("Cc1cccc(C)c1NC(=O)C1CCCCN1C (stereo not given)", "inactive"),
    ("C=NC(C(=O)NC1C(=O)N2C1SC(C)(C)C2C(=O)O)c1ccccc1 (stereo not given)", "inactive"),
    ("CC(=O)O[C@@H]1CC2C(C)(C)[C@H](O)CC[C@]2(C)C2CC[C@@]3(C)[C@H](c4ccoc4)OC(=O)C4OC43[C@@]21C (stereo not given in full)", "inactive"),
    ("Cn1c(=S)[nH]c2cc(C(F)(F)F)ccc21", "inactive"),
    ("CN1CCC[C@@H]1CCO[C@](C)(c1ccccc1)c1ccc(Cl)cc1", "inactive"),
    ("CC12CCC3C(CC[C@H]4CC5(CCC34C)OCCO5)C1CCC2O (stereo not given in full)", "active"),
    ("CCOC(=O)c1cnn(-c2ccc(F)cc2)c1N", "inactive"),
    ("CC(=O)OC/C=C(\\C)CC/C=C(\\C)CC/C=C(\\C)CC/C=C(\\C)CC/C=C(\\C)CC/C=C(\\C)CC/C=C(\\C)CC/C=C(\\C)CCC=C(C)C", "inactive"),
    ("FC(F)(F)Oc1ccccc1-c1nnc(-c2ccc(Cl)cc2)o1", "inactive"),
    ("CC(=O)C1CCC2C3CCC4C[C@H](O)CCC4(C)C3C[C@H](O)C12C (stereo not given in full)", "inactive"),
    ("NNC(=O)c1cnn(-c2ccc(Cl)cc2)c1C(F)(F)F", "inactive"),
    ("C=C[C@@]1(C)CC(=O)[C@@]2(O)[C@](C)(O1)[C@@H](OC(C)=O)[C@@H](O)C1C(C)(C)CC[C@H](O)[C@@]12C (stereo not given in full)", "inactive"),
    ("O/N=C(/CNC(c1ccccc1)(c1ccccc1)c1ccccc1)c1ccccc1", "inactive"),
    ("CC(=O)Oc1ccc2c(c1)CCC1C2CC[C@]2(C)C(=O)CCC12 (stereo not given in full)", "inactive"),
    ("C[C@]12CCC3c4ccc(O)cc4CCC3C1CCC2=O (stereo not given in full)", "inactive"),
    ("CC(=O)C1CC[C@H]2C3CC[C@H]4C[C@H](O)CC[C@]4(C)C3CC[C@]12C (stereo not given in full)", "inactive"),
    ("NC(=O)CS(=O)C(c1ccccc1)c1ccccc1 (stereo not given)", "inactive"),
    ("COC(=O)[C@@H]1OC(=O)C2OC23[C@@]1(C)CCC1[C@@]2(C)CCC(=O)C(C)(C)C2C[C@@H](OC(C)=O)[C@]13C (stereo not given in full)", "inactive"),
    ("CN(C)C(=O)Oc1ccc[n+](C)c1", "inactive"),
]
